Some binders, each annotated with its measured Relative cAMP EC50.
Molecular target: human glucagon receptor (human) (UniProt P47871)
Sequence (P47871 26-477): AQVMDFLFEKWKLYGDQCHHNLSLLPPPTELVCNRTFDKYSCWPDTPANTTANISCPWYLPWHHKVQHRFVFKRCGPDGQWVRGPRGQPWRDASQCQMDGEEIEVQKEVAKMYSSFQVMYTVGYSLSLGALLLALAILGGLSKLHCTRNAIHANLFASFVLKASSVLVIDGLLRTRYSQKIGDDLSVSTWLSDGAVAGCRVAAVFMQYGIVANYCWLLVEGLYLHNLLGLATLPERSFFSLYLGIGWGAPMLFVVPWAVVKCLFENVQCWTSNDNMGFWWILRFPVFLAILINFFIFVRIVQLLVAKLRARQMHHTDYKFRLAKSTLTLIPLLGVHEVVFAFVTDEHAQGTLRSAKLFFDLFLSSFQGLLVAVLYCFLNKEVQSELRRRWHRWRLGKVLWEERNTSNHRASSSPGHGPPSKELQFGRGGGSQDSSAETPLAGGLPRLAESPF
Assay: cell-based or functional assay
Starred links: 1 amine or outer side, 2 acyl side, 3 side chain; linkers in the order of their positions; H or OH if unused. Non-standard residues stand in square brackets, D forms with d. Groups on a side chain read outwards from the residue. No end group written: not given here. *: point of attachment. C20 diacid = O=C(O)CCCCCCCCCCCCCCCCCCC(=O)*; γGlu = O=C(O)[C@H](CCC(=O)[*:2])N[*:1]; NMeY = CN[C@@H](Cc1ccc(O)cc1)C(=O)O; αMeF = C[C@](N)(Cc1ccccc1)C(=O)O; AEEA = NCCOCCOCC(=O)O; Aib = CC(C)(N)C(=O)O

- binder: "YXQGTFTSDXSQXLDXKAQXQFIEXLIEXGPSSGAPPPSGSEE (Aib, 4Pal, αMeL, Orn, Me4Pal, αMeY; acylated lysine; amide; synthetic construct; SITE 2: note = 2-Aminoisobutyric Acid; SITE 10: note = 3-(4-Pyridyl)-L-alanine; SITE 13: note = alpha-methyl-leucine; SITE 16: note = L-ornithine; SITE 17: note = Lysine is chemically modified through conjugation of the epsilon-amino group of the Lysine side chain with (2-[2-(2-) [Example 1109]"
  uom: "nM"
  Relative cAMP EC50: 10.8
- binder: "YXQGTXTSDXXIXLDXKAAXEFIEXLIEGGPSSGEPPPSGGGE (synthetic construct; SITE 2: note = 2-Aminoisobutyric Acid; SITE 6: note = alpha-methyl-2-fluoro-L-phenylalanine; SITE 10: note = 3-(4-Pyridyl)-L-alanine; SITE 11: note = alpha-methyl-L-serine; SITE 13: note = alpha-methyl-leucine; SITE 16: note = L-ornithine; SITE 17: note = Lysine is chemically mo) [Example 748]"
  uom: "nM"
  Relative cAMP EC50: 1.42
- binder: "YXQGTFTSDXSQXLDKKAQXAFIEYLLAGGPSSGAPPPSGSEE (synthetic construct; SITE 2: note = 2-Aminoisobutyric Acid; SITE 10: note = 3-(4-Pyridyl)-L-alanine; SITE 13: note = alpha-methyl-leucine; SITE 17: note = Lysine is chemically modified through conjugation of the epsilon-amino group of the Lysine side chain with (gamma-Glu)2-CO-(CH2)16-CO2H; SITE 20:) [Example 1036]"
  uom: "nM"
  Relative cAMP EC50: 2.05
- binder: "YXQGTXTSDYXIXLDXKAQXXFIEXLLEGGPSSGEPPPS (synthetic construct; SITE 2: note = 2-Aminoisobutyric Acid; SITE 6: note = alpha-methyl-2-fluoro-L-phenylalanine; SITE 11: note = alpha-methyl-L-serine; SITE 13: note = alpha-methyl-leucine; SITE 16: note = L-ornithine; SITE 17: note = Lysine is chemically modified through conjugation of the epsilon) [Example 368]"
  uom: "nM"
  Relative cAMP EC50: 0.481
- binder: "YXQGTXTSDXXIXLDXQAQXEFIEXLIEGGPSSGAPPPSGGGE (not fully specified; no fatty acid conjugated; synthetic construct; SITE 2: note = 2-Aminoisobutyric Acid; SITE 6: note = alpha-methyl-2-fluoro-L-phenylalanine; SITE 10: note = …; SITE 11: note = alpha-methyl-L-serine; SITE 13: note = alpha-methyl-leucine; SITE 16: note = L-ornithine; SITE 20: note = 3-(4-Pyridyl)-L-alanine) [Example 1234]"
  uom: "nM"
  Relative cAMP EC50: 11.6
- binder: "YXQGTFTSDXSKXLDKKAQXAFIEYLIEAGESSGEPPPSGS (synthetic construct; SITE 2: note = 2-Aminoisobutyric Acid; SITE 10: note = 3-(4-Pyridyl)-L-alanine; SITE 13: note = alpha-methyl-leucine; SITE 17: note = Lysine is chemically modified through conjugation of the epsilon-amino group of the Lysine side chain with (2-[2-(2-Amino-ethoxy)-ethoxy]-acetyl)) [Example 284]"
  uom: "nM"
  Relative cAMP EC50: 9.21
- binder: "YXQGTFTSDXSXXLDXKAQXAFIEYLLAGGPSSGAPPPSGSEE (non-natural residues; acylated Lys; C-terminal amide; synthetic construct; SITE 2: note = 2-Aminoisobutyric Acid; SITE 10: note = 3-(4-Pyridyl)-L-alanine; SITE 12: note = L-ornithine; SITE 13: note = alpha-methyl-leucine; SITE 16: note = L-ornithine; SITE 17: note = Lysine is chemically modified through conjugation of the epsilon-amino group of the Lys) [Example 1069]"
  uom: "nM"
  Relative cAMP EC50: 21.2
- binder: "YXQGTXTSDXSIXLDKKAQXAFIEYLEEGGPSSGEPPPSGTGE (non-natural residues; lipidated Lys; C-terminal amide; synthetic construct; SITE 2: note = 2-Aminoisobutyric Acid; SITE 6: note = alpha-methyl-2-fluoro-L-phenylalanine; SITE 10: note = 3-(4-Pyridyl)-L-alanine; SITE 13: note = alpha-methyl-leucine; SITE 17: note = Lysine is chemically modified through conjugation of the epsilon-amino group of the Lysine) [Example 624]"
  uom: "nM"
  Relative cAMP EC50: 8.42
- binder: "YXQGTFTSDFSQXLDKKAQXAFIEXLIEGGPSSGAPPPSGS (synthetic construct; SITE 2: note = 2-Aminoisobutyric Acid; SITE 13: note = alpha-methyl-leucine; SITE 17: note = Lysine is chemically modified through conjugation of the epsilon-amino group of the Lysine side chain with (2-[2-(2-Amino-ethoxy)-ethoxy]-acetyl)-(gamma-Glu)-CO-(CH2) 16-CO2H; SITE 20: n) [Example 841]"
  uom: "nM"
  Relative cAMP EC50: 9.71
- binder: "[NMeY][Aib]QGT[αMeF]TSDYSILLDKIAAK([AEEA-AEEA-γGlu-C20 diacid])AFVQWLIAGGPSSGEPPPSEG-NH2 [Example 300]"
  uom: "nM"
  Relative cAMP EC50: 6.54
- binder: "YXQGTFTSDFSXXLDKKAQXAFIEWLLEGGXSSGAPPPSGT (synthetic construct; SITE 2: note = 2-Aminoisobutyric Acid; SITE 12: note = L-ornithine; SITE 13: note = alpha-methyl-leucine; SITE 17: note = Lysine is chemically modified through conjugation of the epsilon-amino group of the Lysine side chain with (2-[2-(2-Amino-ethoxy)-ethoxy]-acetyl)-(gamma-Glu)) [Example 268]"
  uom: "nM"
  Relative cAMP EC50: 7.69
- binder: "YXQGTFTSDFSXXLDKKAQXAFIEWLLEGGPSSGAPPPEGS (synthetic construct; SITE 2: note = 2-Aminoisobutyric Acid; SITE 12: note = L-ornithine; SITE 13: note = alpha-methyl-leucine; SITE 17: note = Lysine is chemically modified through conjugation of the epsilon-amino group of the Lysine side chain with (2-[2-(2-Amino-ethoxy)-ethoxy]-acetyl)-(gamma-Glu)) [Example 121]"
  uom: "nM"
  Relative cAMP EC50: 4.89
